testSystem: SUMO-conjugating enzyme UBC9 (Homo sapiens)
assayComment: blockers of UBC9-mediated SUMO conjugation – biochemical, AlphaScreen, SUMOylation inhibitor project, confirmation (AID 2018)
assayConditions: AlphaScreen in vitro SUMOylation assay; at 35 µM; stronger effect = higher value
Among all 1,200 compounds or so, about 600 (50%) were called active. The set was probably picked from earlier hits. The list shows a part of the results. Entries with a potency or affinity are not part of this list.
measurementKind: inhibition (%)

In [3]: df
Out[3]:
                                    molecule                                testsystem  measurementkind  measurementunit  measvalue
 0                    Nc1ccc2c(c1)sc1ccccc12  SUMO-conjugating enzyme UBC9 (Homo sapiens)       inhibition                %       20.5
 1           Oc1ccc(N=Cc2c(O)ccc3ccccc23)cc1  SUMO-conjugating enzyme UBC9 (Homo sapiens)       inhibition                %       21.9
 2            N#Cc1cc2ccc(N3CCOCC3)cc2cc1C#N  SUMO-conjugating enzyme UBC9 (Homo sapiens)       inhibition                %      -11.7
 3          Oc1ccc(NCc2ccccc2OCc2ccccc2F)cc1  SUMO-conjugating enzyme UBC9 (Homo sapiens)       inhibition                %       88.9
 4  N#C/C(=C/c1ccc(-c2ccccc2)o1)c1nc(-c2cccs2)cs1  SUMO-conjugating enzyme UBC9 (Homo sapiens)       inhibition                %       -4.5
 5   Cc1nc2ccccc2c(=O)n1/N=C/c1ccc(O)c(O)c1O  SUMO-conjugating enzyme UBC9 (Homo sapiens)       inhibition                %       81.7
 6  COc1ccc(CCN2Cc3c(cccc3[N+](=O)[O-])C2=O)cc1OC  SUMO-conjugating enzyme UBC9 (Homo sapiens)       inhibition                %       -5.8
 7  Cc1cc(C)c(S(=O)(=O)NCC23C=CC(O2)C2C(=O)N(c4ccccc4)C(=O)C23)c(C)c1 (configuration not stated)  SUMO-conjugating enzyme UBC9 (Homo sapiens)       inhibition                %       -6.4
 8         Oc1c(C=Nc2cccc3nsnc23)ccc2ccccc12  SUMO-conjugating enzyme UBC9 (Homo sapiens)       inhibition                %         98
 9  Cc1ccc(Nc2nc(=O)c3cc([N+](=O)[O-])ccc3s2)cc1  SUMO-conjugating enzyme UBC9 (Homo sapiens)       inhibition                %       24.2
10                  CCOc1ccccc1CNc1ccc(O)cc1  SUMO-conjugating enzyme UBC9 (Homo sapiens)       inhibition                %       45.3
11     Nc1c(Cl)cc(NC(=O)c2ccccc2C(=O)O)cc1Br  SUMO-conjugating enzyme UBC9 (Homo sapiens)       inhibition                %          8
12  CCC(C(=O)O)n1nnc(-c2ccc(OCc3ccccc3)c(OC)c2)n1 (configuration not stated)  SUMO-conjugating enzyme UBC9 (Homo sapiens)       inhibition                %          2
13  COc1cc(/C=C2/C(=O)N(c3ccc([N+](=O)[O-])cc3)N=C2N2CCOCC2)ccc1O  SUMO-conjugating enzyme UBC9 (Homo sapiens)       inhibition                %       68.6
14             Cn1c(CNc2ccc(O)cc2)nc2ccccc21  SUMO-conjugating enzyme UBC9 (Homo sapiens)       inhibition                %       16.9
15  CC(=O)N1C(=S)NC(=O)/C1=C1/C(=O)N(CC(=O)Nc2cccc(C)c2)c2ccccc21  SUMO-conjugating enzyme UBC9 (Homo sapiens)       inhibition                %       12.6
16  O=C1CC(N2CCOCC2)=NN1c1ccc([N+](=O)[O-])cc1  SUMO-conjugating enzyme UBC9 (Homo sapiens)       inhibition                %       51.4
